Measured values drawn from PubChem BioAssay for this set.

Listed here are molecules together with their documented composite z-score.
system: Sam68 (KHDRBS1); assay: Sam68 small-molecule binders, primary screen, biochemical, small-molecule microarray, 635 nm fluorescence (AID 1125); conditions: small-molecule microarray binding, higher = more signal;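 note: score merges 667 nm channel intensity with signal to noise over triplicate slides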
API doc: respond with a numeric literal and nothing else, no unit.

MOLECULE	composite z-score
CC(C)CCC[C@@H](C)[C@H]1CC[C@@]2(C)C3=C(CC[C@]12C)[C@@]1(C)CC[C@H](OC(=O)c2ccc(Br)cc2)C(C)(C)C1CC3 (some centres undefined)	0.28
O=C(NC1CC1)[C@@H]1c2ccccc2C(=O)N(Cc2ccccc2)[C@H]1c1ccc(CO)cc1	0.372
COc1ccc(C(O)C2C=CC3C(=O)N(c4ccccc4)C(=O)C3N2Nc2ccc(C#N)cc2)c2ccccc12 (centres undefined)	1.28
COc1ccc(NC(=O)O[C@H]2[C@H](OC(=O)Nc3ccc4c(c3)OCO4)[C@@H](OC(=O)Nc3ccc4c(c3)OCO4)[C@@H](OC)O[C@@H]2CO)cc1	1.29

Lookup result for `O=C1C[C@]2(c3ccc([N+](=O)[O-])cc3)C(=O)N(Cc3ccccc3)c3cc(CO)ccc3[C@H]2N1CC12CC3CC(CC(C3)C1)C2` ; measured composite z-score: -1.26

The molecule `CCOC(=O)C[C@H]1[C@H](OC(=O)c2ccc(-c3ccccc3)cc2)[C@@H](NC(=O)c2ccc3ccccc3n2)c2cc(OCCCO)ccc2N1C(=O)c1ccccc1` showed composite z-score equal to 1.25

Field composite z-score (entry `CCCc1cccc(=O)o1` ) reads 0.699

Just so you know, measured composite z-score for `C=C(CCCC)C(=O)CC[C@@H](OC(=O)c1ccccc1-c1ccccc1C(=O)O)c1cccc(OCCO)c1` came out at 0.986

Record `O=C1O[C@@H](c2ccccc2)[C@@H](c2ccccc2)N2[C@@H](c3ccc(O)cc3)[C@]3(C(=O)Nc4ccc(C#CC5=CCCCC5)cc43)[C@@H](C(=O)N3CCN(c4ncccn4)CC3)[C@H]12` . Reported composite z-score: 1.29

# composite z-score (molecule: `CN(C)C(=O)[C@]1(CCC(=O)OC(C)(C)C)N=C(c2ccc(OCCCO)cc2)O[C@@H]1c1ccccc1` ) is 0.374

Entry `C=CC[C@]1(C(=O)N(C)C)N=C(c2ccc(OCCCO)cc2)O[C@H]1c1ccccc1N=[N+]=[N-]` — recorded composite z-score = 1.3

Lab book: composite z-score of `COCCOC(=O)N1C(=O)[C@@]2(c3cc(C#Cc4ccc(OC)cc4)ccc31)[C@H](C(=O)N1CCN(c3ncccn3)CC1)[C@H]1C(=O)O[C@H](c3ccccc3)[C@H](c3ccccc3)N1[C@@H]2c1ccccc1OCCO` noted as 0.717

`C=CCNC(=O)[C@@H]1[C@H]2C(=O)O[C@H](c3ccccc3)[C@H](c3ccccc3)N2[C@H](c2ccc(OCCO)cc2)[C@@]12C(=O)N(C(=O)OCCOC)c1ccc(C#CC3=CCCCC3)cc12` has a reported composite z-score of 1.3

Entry `O=C1O[C@@H](c2ccccc2)[C@@H](c2ccccc2)N2[C@@H](c3ccccc3OCCO)[C@]3(C(=O)Nc4ccc(C#CCCO)cc43)[C@@H](C(=O)Nc3nc4ccccc4s3)[C@H]12` — recorded composite z-score = 1.31

Consider `CC(C)CN1C(=O)[C@@]2(Cc3ccccc31)c1ccccc1C(=O)N(Cc1ccccc1C(F)(F)F)[C@H]2c1ccc(CO)cc1` . Its measured composite z-score is -2.12

The molecule identified as `Cc1ccc(S[C@]2(C(=O)NC(C)C)CC(=O)N(Cc3ccccc3C(F)(F)F)[C@@H]2c2ccc(CO)cc2I)cc1` registered its composite z-score at 0.0747

composite z-score in this record for CC=CC(O)C1C=CC2C(=O)N(C)C(=O)C2N1Nc1ccc([N+](=O)[O-])cc1[N+](=O)[O-] (centres undefined) : -0.52

Recorded composite z-score (molecule `C=C(C(=O)CC[C@H](OC(C)=O)c1cccc(OCCO)c1)C(C)C` ): -0.0177

Please fill in: composite z-score reported for `O=c1cccc(-c2cccc(Cl)c2)o1` = 0.159

====

experiment: P. aeruginosa biofilm formation inhibitors, primary screen, PAO1 strain, BacTiter-Glo luminescence, LB-PBS (AID 1144); settings: 12 h, higher = more signal
Think of 0.1 as a floor: if z-score stands on it or above, it is Fulfilled; beneath it, Not fulfilled.

Q: Quick check: does `COC(=O)C[C@H]1O[C@]2(C(=O)N(C)c3ccccc32)[C@@H](C)[C@@H]1[Si](C)(C)c1ccc(C)cc1` have z-score greater than or equal to 0.1?
Ans: Fulfilled

Q: Does z-score meet or surpass 0.1 for `[N-]=[N+]=NCc1ccccc1C[C@@]1(C(=O)N2CCCCC2)N=C(c2ccc(OCCCO)cc2)O[C@@H]1c1ccccc1N=[N+]=[N-]` ?
Ans: Fulfilled

Q: Determine whether measured z-score meets or exceeds 0.1 for `CC(C)(C)OC(=O)CC[C@]1(C(=O)NCCN2CCOCC2)N=C(c2ccc(OCCCO)cc2)O[C@H]1c1ccccc1N=[N+]=[N-]`
Ans: Fulfilled

Q: Identify whether the reported z-score of the following molecule is 0.1 or greater: C=CCC(OC(C)=O)[C@@H]1[C@@H](N(Cc2ccc(-c3ccccc3)cc2)C(=O)c2cccc3ccccc23)c2cc(OCCCO)ccc2N1C(=O)Cc1ccc2ccccc2c1 (stereo partly drawn)
Ans: Fulfilled

Q: Determine whether this molecule has z-score no lower than 0.1: `O=C1C[C@@](C(=O)NCC(F)(F)F)(c2ccc([N+](=O)[O-])cc2)[C@@H](c2ccc(CO)cc2)N1C1CCCCC1`
Ans: Not fulfilled

====

assay: mitochondrial membrane potential change in A549 cells, profiling panel, cell-based, JC-1 fluorescence, basal, 24 h, 100 nL (AID 1138); conditions: higher = more signal;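 note: A549 lung adenocarcinoma cells under basal conditions with no added stimulus; test concentration not given here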
z-score values by entry
// no unit string in output, number only

response.value for C=C1C2CC3C(=C4C(CO[C@@H]4[C@H]4CCCN4S(=O)(=O)c4ccccc4[N+](=O)[O-])C4C(=O)N(C)C(=O)C34)CC2C(=O)N1C (stereo partly drawn) (field: z-score) = 0.225

// z-score lookup, molecule = CC(CO)N1C(=O)[C@@H]2C3C(=O)OCCC/C=C\[C@H]3OC23C=CCN(Cn2nnc4ccccc42)C(=O)[C@@H]13 (stereo partly drawn) , result: 0.918

response.value for `C=CCOC(=O)[C@@H]1[C@H]2C(=O)O[C@H](c3ccccc3)[C@H](c3ccccc3)N2[C@H](c2ccc(OCCOC(=O)[C@H]3C[C@H]4C(=O)N[C@@H](CCCC[N+](C)(C)C)C(=O)N4[C@H]3c3ccc(O)cc3)cc2)[C@@]12C(=O)Nc1ccc(I)cc12` (field: z-score) = -1.93

====

test: P. aeruginosa biofilm formation inhibitors, primary screen, PAO1 strain, BacTiter-Glo luminescence, LB-PBS (AID 1144); details: 12 h, higher = more signal
MEASURE_NAME: z-score
Lab note: write the figure by itself, no unit.

Solved cases (6 shown):
COMPOUND	z-score
NCCCCCNC(=O)[C@@H]1C[C@@H]2C(=O)N[C@@H](CCCCN)C(=O)N2[C@@H]1c1cccc(OCCO)c1	-0.85
C=CCC(OC(C)=O)[C@@H]1[C@@H](N(Cc2cc3ccccc3o2)C(=O)c2ccc(C)cc2)c2cc(OCCCO)ccc2N1C(=O)Cc1ccc2ccccc2c1 (some centres not stated)	-0.956
COCCCNC(=O)[C@@]1(Sc2ccc(C)cc2)CC(=O)N(Cc2cc(C(F)(F)F)cc(C(F)(F)F)c2)[C@@H]1c1ccc(CO)cc1	0.126
CCOC(=O)C1=CC[C@@H](c2ccccc2)N(S(=O)(=O)c2ccc(C)cc2)C1	0.84
COc1c(C)cc(-c2cc3c(c(-c4ccccc4)n2)[Si](C(C)C)(C(C)C)OC3)cc1C	-0.661
CCCNC(=O)[C@@]1(c2ccc([N+](=O)[O-])cc2)CC(=O)N(C2CCCCC2)[C@@H]1c1ccc(CO)cc1I	-0.326

# context switch: different compound, same z-score
The compound listed as `COCCOC(=O)N1C(=O)[C@@]2(c3cc(C#CC4(O)CCCCCC4)ccc31)[C@H](C(=O)N1CCCCCCC1)[C@H]1C(=O)O[C@H](c3ccccc3)[C@H](c3ccccc3)N1[C@@H]2c1ccc(OCCO)cc1` shows z-score equal to 0.629

====

test: A549 cell viability effects, profiling panel, calcein-AM fluorescence, 48 h, basal (AID 1162); details: higher = more signal; note: test concentration not given here
MEASURE_NAME: z-score
Enter a number only.

// recorded z-score for `CCOC(=O)C[C@H]1[C@H](OC(=O)c2ccc(-c3ccccc3)cc2)[C@@H](NC(=O)c2ccc3ccccc3c2)c2cc(OCCCO)ccc2N1C(=O)c1ccc2ccccc2n1` : 0.245

Reported z-score for `COCCOC(=O)N1C(=O)[C@@]2(c3cc(C#Cc4ccc(OC)cc4)ccc31)[C@H](C(=O)NC[C@H](O)c1ccccc1)[C@H]1C(=O)O[C@H](c3ccccc3)[C@H](c3ccccc3)N1[C@@H]2c1ccc(O)cc1` was -0.24

The reported value for CC(=O)n1cc(C(O)C2C=CC3C(=O)N(c4ccccc4)C(=O)C3N2Nc2ccccc2)c2ccccc21 (centres undefined) in terms of z-score is -0.8

# z-score (molecule: `C=C(C(=O)CC[C@H](OC(=O)c1cccnc1)c1cccc(OCCO)c1)C(C)C` ) is 0.647
